assay_target: Renin (Homo sapiens, UniProt P00797)
Sequence (P00797 whole entry): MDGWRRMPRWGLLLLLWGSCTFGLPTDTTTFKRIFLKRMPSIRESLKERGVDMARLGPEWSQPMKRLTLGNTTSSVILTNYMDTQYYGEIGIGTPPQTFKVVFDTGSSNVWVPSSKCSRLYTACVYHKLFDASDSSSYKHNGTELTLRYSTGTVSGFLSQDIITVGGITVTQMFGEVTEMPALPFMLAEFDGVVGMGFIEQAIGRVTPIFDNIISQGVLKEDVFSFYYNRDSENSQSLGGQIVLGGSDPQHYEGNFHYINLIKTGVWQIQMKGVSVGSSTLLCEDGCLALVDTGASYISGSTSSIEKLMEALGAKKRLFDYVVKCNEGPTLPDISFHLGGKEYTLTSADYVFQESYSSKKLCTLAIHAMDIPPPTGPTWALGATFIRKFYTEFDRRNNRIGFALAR
method_description: Inhibition of human recombinant renin preincubated for 30 mins followed by substrate addition measured after 15 mins by fluorescence analysis
For each record, check the reported IC50: if it is below 5 nM write Criterion met, else write Criterion not met.

Sample answers from the record:
IN: Dear reviewer, please state whether COCCCOc1cc(C[C@@H](C[C@H](N)[C@@H](O)C[C@H](C(=O)NCC(C)(C)Cn2cc(-c3ccc(C)cc3)nn2)C(C)C)C(C)C)ccc1OC has IC50 strictly beneath 5 nM.
OUT: Criterion not met

IN: Dear reviewer, please state whether COCCCOc1cc(C[C@@H](C[C@H](N)[C@@H](O)C[C@H](C(=O)NCC(C)(C)Cc2cc(F)ccc2F)C(C)C)C(C)C)ccc1OC has IC50 strictly beneath 5 nM.
OUT: Criterion not met

IN: Dear reviewer, please state whether COCCCOc1cc(C[C@@H](C[C@H](N)[C@@H](O)C[C@H](C(=O)NCC(C)(C)Cn2cc(CN(C)C)nn2)C(C)C)C(C)C)ccc1OC has IC50 strictly beneath 5 nM.
OUT: Criterion met

IN: Dear reviewer, please state whether CCN(CC)Cc1cn(CC(C)(C)CNC(=O)[C@@H](C[C@H](O)[C@@H](N)C[C@H](Cc2ccc(OC)c(OCCCOC)c2)C(C)C)C(C)C)nn1 has IC50 strictly beneath 5 nM.
OUT: Criterion met

Please turn your attention to the following entry.
IN: Dear reviewer, please state whether COCCCOc1cc(C[C@@H](C[C@H](N)[C@@H](O)C[C@H](C(=O)NCC(C)(C)Cn2cc(CO)nn2)C(C)C)C(C)C)ccc1OC has IC50 strictly beneath 5 nM.
OUT: Criterion met

----------
assay_target: Renin (Homo sapiens, UniProt P00797)
method_description: Inhibition of human recombinant renin preincubated for 30 mins followed by substrate addition measured after 15 mins by fluorescence analysis
For each record, check the reported IC50: if it is below 7 nM write y, else write n.

IN: Dear reviewer, please state whether COCCCOc1cc(C[C@@H](C[C@H](N)[C@@H](O)C[C@H](C(=O)NCC(C)(C)Cn2cc(CCO)nn2)C(C)C)C(C)C)ccc1OC.Cl has IC50 strictly beneath 7 nM.
OUT: y

Please turn your attention to the following entry.
IN: Dear reviewer, please state whether COCCCOc1cc(C[C@@H](C[C@H](N)[C@@H](O)C[C@H](C(=O)NCC(C)(C)Cc2cccc(OC)c2)C(C)C)C(C)C)ccc1OC has IC50 strictly beneath 7 nM.
OUT: n

----------
assay_target: UniProt:P00797
method_description: Inhibition of human recombinant renin preincubated for 30 mins followed by substrate addition measured after 15 mins by fluorescence analysis
recorded_metric: IC50 (µM)
# number only, unit µM dropped from output

IN: Record request: IC50 value, item COCCCOc1cc(C[C@@H](C[C@H](N)[C@@H](O)C[C@H](C(=O)NCC(C)(C)Cn2cc(CN(C(C)C)C(C)C)nn2)C(C)C)C(C)C)ccc1OC
OUT: 0.0027

---
IN: Record request: IC50 value, item COCCCOc1cc(C[C@@H](C[C@H](N)[C@@H](O)C[C@H](C(=O)NCC(C)(C)Cc2ccc(OC)cc2)C(C)C)C(C)C)ccc1OC
OUT: 0.0102

IN: Record request: IC50 value, item COCCCOc1cc(C[C@@H](C[C@H](N)[C@@H](O)C[C@H](C(=O)NCC(C)(C)Cc2cccc(Cl)c2)C(C)C)C(C)C)ccc1OC
OUT: 0.0098

IN: Record request: IC50 value, item COCCCOc1cc(C[C@@H](C[C@H](N)[C@@H](O)C[C@H](C(=O)NCC(C)(C)Cc2ccc(OC(F)(F)F)cc2)C(C)C)C(C)C)ccc1OC
OUT: 0.0134

IN: Record request: IC50 value, item COCCCOc1cc(C[C@@H](C[C@H](N)[C@@H](O)C[C@H](C(=O)NCC(C)(C)CC2CCCCC2)C(C)C)C(C)C)ccc1OC
OUT: 0.0155

IN: Record request: IC50 value, item COCCCOc1cc(C[C@@H](C[C@H](N)[C@@H](O)C[C@H](C(=O)NCC(C)(C)Cn2ccnn2)C(C)C)C(C)C)ccc1OC
OUT: 0.002
